Provenance of the data: ChEMBL document CHEMBL1123761

molecular target: Dipeptidase 1 (Sus scrofa); test: Inhibitory activity against beta-lactamase renal dipeptidase
propertyLabel: Ki (nM)

compound	Ki (nM)
C/C=C(\NC(=O)[C@@H]1C[C@H]1CC)C(=O)O	1600
CC(=O)NC(CSCCCC/C=C(\NC(=O)[C@H]1CC1(C)C)C(=O)O)C(=O)O (some centres not stated)	60

(A) CN(CCCC/C=C(\NC(=O)C1CC1(C)C)C(=O)O)CC(=O)O (configuration not stated)
(B) C/C=C(\NC(=O)CCCCC(=O)OCC)C(=O)O
(C) CC1(C)CC1C(=O)N/C(=C\CCCCCCBr)C(=O)O (configuration not stated)
(D) C/C=C(\NC(=O)C1(C)CC1(Cl)Cl)C(=O)O (configuration not stated)
(E) C/C=C(\NC(=O)C1CC1(F)F)C(=O)O (configuration not stated)
// query Arrange these compounds by their Ki, starting with the largest number. Response format: the labels, sorted as the prompt asks.
// result D, B, E, A, C
(D: 164000 nM, B: 18000 nM, E: 2100 nM, A: 560 nM, C: 160 nM)

###

Target: UniProt:P22412
Sequence (P22412 whole entry): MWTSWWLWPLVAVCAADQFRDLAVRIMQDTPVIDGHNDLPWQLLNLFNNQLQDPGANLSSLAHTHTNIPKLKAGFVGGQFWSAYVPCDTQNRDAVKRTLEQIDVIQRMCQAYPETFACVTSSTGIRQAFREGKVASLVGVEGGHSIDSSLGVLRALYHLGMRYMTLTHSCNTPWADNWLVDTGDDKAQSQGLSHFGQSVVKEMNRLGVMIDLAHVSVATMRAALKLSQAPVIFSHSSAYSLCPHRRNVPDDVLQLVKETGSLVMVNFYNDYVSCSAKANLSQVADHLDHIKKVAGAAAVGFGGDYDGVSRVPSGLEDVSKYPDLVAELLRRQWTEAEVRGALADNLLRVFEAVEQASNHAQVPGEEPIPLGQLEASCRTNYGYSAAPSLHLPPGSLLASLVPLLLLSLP
Experiment: Inhibitory activity against beta-lactamase renal dipeptidase
propertyLabel: Ki (nM)

Example entries begin here.
compound	propertyLabel	unitText	recordedResult
C[N+](C)(C)CCCCC/C=C(\NC(=O)C1CC1(Cl)Cl)C(=O)O (stereo unspecified)	Ki	nM	180
C/C=C(\NC(=O)CC1CCCC1)C(=O)O	Ki	nM	9800
CN(CCCCCC/C=C(\NC(=O)C1CC1(C)C)C(=O)O)CC(=O)O (stereo unspecified)	Ki	nM	400

(P) C/C=C(\NC(=O)[C@H]1[C@H](C)[C@@H]1C)C(=O)O
(Q) CCCCCC/C=C(\NC(=O)C1CC1(C)C)C(=O)O (stereo unspecified)
// query I need your help: which of the pair P , Q has higher Ki? // return label of chosen record
// result P

###

Target: Dipeptidase 1 (Sus scrofa, UniProt P22412)
Sequence (P22412 whole entry): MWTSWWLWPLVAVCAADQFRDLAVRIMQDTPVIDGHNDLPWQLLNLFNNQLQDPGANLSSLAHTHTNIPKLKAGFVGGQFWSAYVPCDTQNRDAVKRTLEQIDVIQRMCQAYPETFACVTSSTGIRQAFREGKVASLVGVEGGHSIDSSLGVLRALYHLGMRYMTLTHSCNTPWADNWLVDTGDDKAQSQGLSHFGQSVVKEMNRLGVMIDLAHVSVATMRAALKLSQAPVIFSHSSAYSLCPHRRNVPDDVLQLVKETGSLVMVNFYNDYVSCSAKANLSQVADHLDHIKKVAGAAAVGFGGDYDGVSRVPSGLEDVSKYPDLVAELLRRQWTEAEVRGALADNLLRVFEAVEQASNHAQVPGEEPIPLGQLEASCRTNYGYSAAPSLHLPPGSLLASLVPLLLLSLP
Assay: Inhibitory activity against beta-lactamase renal dipeptidase
propertyLabel: Ki (nM)

Consider the worked cases shown below.
compound	Ki [nM]
C/C=C(\NC(=O)CCCCC(=O)N/C(=C\C)C(=O)O)C(=O)O	10000
COCCCC/C=C(\NC(=O)C1CC1(C)C)C(=O)O (centres undefined)	160
C/C=C(\NC(=O)c1cccc(Cl)c1)C(=O)O	22000

(A) CC1(C)CC1C(=O)N/C(=C\CCCCSCC(=O)O)C(=O)O (centres undefined)
(B) CC1(C)CC1C(=O)N/C(=C\CCCCCSCC(N)=O)C(=O)O (centres undefined)
// query Between A and B , which one shows the smaller Ki number? Select an item and report its label.
// result A

(1) C/C=C(\NC(=O)C1CC12CC2)C(=O)O (centres undefined)
(2) CC1(C)CC1C(=O)N/C(=C\CCCCC#N)C(=O)O (centres undefined)
(3) CC1(C)CC1C(=O)N/C(=C\CCCCS(=O)(=O)O)C(=O)O (centres undefined)
// query Falling order of Ki, please. Enter labels, ranked according to the request.
// result 1, 2, 3
(1: 1600 nM, 2: 210 nM, 3: 87 nM)

(A) CCCCCCC/C=C(\NC(=O)C1CC1(C)C)C(=O)O (centres undefined)
(B) CC1(C)CC1C(=O)N/C(=C\CCCSCC(N)C(=O)O)C(=O)O (centres undefined)
(C) CC1(C)C[C@@H]1C(=O)N/C(=C\CCCCCNC(C)(C)P(=O)(O)O)C(=O)O
// query Sort by Ki, descending. Please respond by ranking the labels in the order requested.
// result B, C, A
(B: 270 nM, C: 180 nM, A: 96 nM)
